- TARGET: KRAS G12S (Homo sapiens (Human), UniProt P01116+P62937, G12S)
- Sequence (P01116-2 other isoform, or with tags, fused parts or gaps G12S): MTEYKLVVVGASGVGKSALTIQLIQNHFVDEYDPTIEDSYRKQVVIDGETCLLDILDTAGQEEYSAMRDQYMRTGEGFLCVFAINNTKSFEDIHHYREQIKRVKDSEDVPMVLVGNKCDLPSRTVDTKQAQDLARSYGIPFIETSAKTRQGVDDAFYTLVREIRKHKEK
- Sequence (P62937 whole entry): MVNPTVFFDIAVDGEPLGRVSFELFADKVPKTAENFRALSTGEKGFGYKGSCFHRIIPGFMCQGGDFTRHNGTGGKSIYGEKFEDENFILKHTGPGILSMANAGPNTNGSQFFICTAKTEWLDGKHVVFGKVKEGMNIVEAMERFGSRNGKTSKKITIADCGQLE
- ASSAY_EXPLANATION: Ras-Raf (BRAF RBD) disruption / FRET / MOA assay, KRAS G12S
- Format: biochemical
- STUDY_CONDITIONS: Ras-Raf disruption/FRET/MOA assay; class symbols; read-out: KRAS G12S FRET data IC50
- Protocol: The purpose of this biochemical assay is to measure the ability of test compounds to facilitate ternary complex formation between a nucleotide-loaded Ras isoform and cyclophilin A; the resulting ternary complex disrupts binding to a BRAF^RBD construct, inhibiting Ras signaling through a RAF effector. Compound is present in plate wells as a 10-point 3-fold dilution series starting at a final concentration of 30 μM. […]
OBSERVATION_TYPE: IC50

compound="C=CC(=O)N1CC[C@H](C(=O)N(C)[C@H](C(=O)N[C@H]2Cc3nc(cs3)-c3ccc4c(c3)c(c(-c3cc5c(nc3[C@H](C)OC)CCN(C)C5)n4CC)CC(C)(C)COC(=O)[C@@H]3CCCN(N3)C2=O)C(C)C)C1 (atropisomer, axis not shown) [Example A472]" value_reported="1 to 10 µM"
compound="C=CC(=O)N1CCN(C(=O)N(C)[C@H](C(=O)N[C@H]2Cc3nc(cs3)-c3ccc4c(c3)c(c(-c3cccnc3[C@H](C)OC)n4CC)CC(C)(C)COC(=O)[C@@H]3CCCN(N3)C2=O)C(C)C)C[C@@H]1C (atropisomer, axis not shown) [Example A433]" value_reported="0.01 to 0.1 µM"
compound="C=CC(=O)N1CC[C@H](C(=O)N(C)[C@H](C(=O)N[C@H]2Cc3cc(F)cc(c3)-c3ccc4c(c3)c(c(-c3cccnc3[C@H](C)OC)n4CC)CC(C)(C)COC(=O)[C@@H]3CCCN(N3)C2=O)C(C)C)C1 (atropisomer, axis not shown) [Example A342]" value_reported="1 to 10 µM"
compound="CC#CC(=O)N1CC[C@H](C(=O)N(C)[C@H](C(=O)N[C@H]2Cc3cccc(c3)-c3ccc4c(c3)c(c(-c3cccnc3[C@H](C)OC)n4CC)CC(C)(C)COC(=O)[C@@H]3CCCN(N3)C2=O)C(C)C)C1 (atropisomer, axis not shown) [Example A173]" value_reported="1 to 10 µM"
compound="C=CC(=O)N1CC[C@]2(C1)OCN([C@H](C(=O)N[C@H]1Cc3cc(cc(C(F)F)c3)-c3ccc4c(c3)c(c(-c3cccnc3[C@H](C)OC)n4CC)CC(C)(C)COC(=O)[C@@H]3CCCN(N3)C1=O)C(C)C)C2=O (atropisomer, axis not shown) [Example A557]" value_reported="0.1 to 1 µM"
compound="CCn1c(-c2cccnc2[C@H](C)OC)c2c3cc(ccc31)-c1csc(n1)C[C@H](NC(=O)[C@H](C(C)C)N(C)C(=O)N(C)C1CN(C(=O)/C=C/CN(C)C)C1)C(=O)N1CCC[C@H](N1)C(=O)OCC(C)(C)C2 (atropisomer, axis not shown) [Example A361]" value_reported="0.1 to 1 µM"
compound="C=CC(=O)N(C)[C@@H]1C[C@H]1N(C)C(=O)N(C)[C@H](C(=O)N[C@H]1Cc2nc(cs2)-c2ccc3c(c2)c(c(-c2cccnc2[C@H](C)OC)n3CC)CC(C)(C)COC(=O)[C@@H]2CCCN(N2)C1=O)C(C)C (atropisomer, axis not shown) [Example A739]" value_reported="1 to 10 µM"

The measurements presented in this section are drawn from patent US11566007B2.
